Test: protein stability index of a GFP-peptide fusion (GPS, HEK-293T) (PSI 1-6); higher = more stable;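 also: 24-mer peptide tiles fused after GFP, lentivirally expressed, FACS-sorted into six equal bins by GFP/DsRed ratio, decoded by Illumina sequencing, PSI is the read-weighted mean bin number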
Conditions: treatment: DMSO; c terminus: a fixed tail appended
Lab note: compare protein stability index against 3. Equal or greater, write yes. Smaller, write no.

Entry TFSMPSDSHVSSCSEDWVGYQRKC [CD69] : is its protein stability index no less than 3? yes

Entry LSEVKPPPPPPPAQTFLFQGQPVV [TRADD] : is its protein stability index no less than 3? yes

Entry ASGSFPSQVTATSGNGDFGDWSAF [CLINT1] : is its protein stability index no less than 3? yes

Entry CAKLDSCALGDHGCEHSCVSSEDS [MATN2] : is its protein stability index no less than 3? yes

Entry EELYKEIDGVATTRYSVAGLSPYS [PTPRD] : is its protein stability index no less than 3? yes

Entry AEEAEDHGRIPDPDDFVPPVPPPS [FAM189A2] : is its protein stability index no less than 3? yes

Entry CPSSPKQIHLDVDNDRTTPSDLDS [DLC1] : is its protein stability index no less than 3? yes

Entry KGNRTARIIDKPRVIEVLPRGATA [SEPHS2] : is its protein stability index no less than 3? yes

Entry KKKVGNYYTTPIYRFRMKCHLCVN [YJU2B] : is its protein stability index no less than 3? no

Entry AAEERALFTDRMATRSTTQSNRTS [WEE1] : is its protein stability index no less than 3? yes

Entry FPFQAMVQFHRHHGQEGSILVTKV [GMPPB] : is its protein stability index no less than 3? no

Entry TLPAGADFLMCYSVAEGYYSHRET [CASP6] : is its protein stability index no less than 3? no

Entry LPPDVTTQSVMGFDPLPPSDTIYS [TCF25] : is its protein stability index no less than 3? yes

Entry CSITGDSSRVIAASYDKTVRAWDL [WDR88] : is its protein stability index no less than 3? no

Entry MAGSDTAPFLSQADDPDDGPVPGT [SPNS1] : is its protein stability index no less than 3? yes

Entry FWNQGLTWKVLFCSMSATFTLNFF [CLCN6] : is its protein stability index no less than 3? yes

Entry SPEPGTPAAPTPESFTVHFLPLNS [DNAAF3] : is its protein stability index no less than 3? yes

Entry VFSFDLHEPLSKERVEAFSDGVYA [TMEM175] : is its protein stability index no less than 3? yes

Entry KLTREQEELEEALEVERQENEQRR [MNAT1] : is its protein stability index no less than 3? yes

Entry IPKVELQISIYGVKILEPKTKEVQ [GULP1] : is its protein stability index no less than 3? no

Entry PWNCILLTKDEAAAHLKLTSIEEG [IQUB] : is its protein stability index no less than 3? yes

Entry RLGPLSAEGTTGLAPAGQTSEESR [TNXB] : is its protein stability index no less than 3? yes

Entry FIYYENMLLGVPRLRQLKVRNDSC [PKD2L1] : is its protein stability index no less than 3? no

Entry RSLQDGTREGFGHSTSLKVPLARS [LCOR] : is its protein stability index no less than 3? yes

Entry KCLQLLGNLGSLEKSVTKDAEGLA [INTS4] : is its protein stability index no less than 3? no

Entry QPHHQPPNRAGAPGESLECPAELR [TRAF3IP2] : is its protein stability index no less than 3? yes

Entry VRRQRSADEQLHCAGKAKRSGGHA [ESR2] : is its protein stability index no less than 3? yes

Entry LCCAFSTDGSVLAAGTHDGSVYFW [WSB1] : is its protein stability index no less than 3? no

Entry LLEDMRASEAFHWDERGRAAAYSP [ANKRD9] : is its protein stability index no less than 3? no

Entry RLVESTSLRKAIETVYAAYLPKNT [MLH1] : is its protein stability index no less than 3? no

Entry PFHDSDPSALFSKIRRGQFCIPEH [TRIB1] : is its protein stability index no less than 3? yes

Entry SDLSRRSSSTMSKSEYMEIEEDMN [KCNA1] : is its protein stability index no less than 3? yes

Entry ALGNLVEGMDFHRFYFENLLAKNS [CAMK2B] : is its protein stability index no less than 3? no

Entry RSPDASPSRAPPSTQEPQSPREGE [GNAS] : is its protein stability index no less than 3? yes

Entry KSCYNGRFQLLYVACGMVHLLIPE [DNAAF3] : is its protein stability index no less than 3? yes

Entry AEFIESGQYRANEGTSSIVMEIQK [TAF7L] : is its protein stability index no less than 3? yes

Entry YLAMLERFQDGDNILEKEVLPPIH [FEM1B] : is its protein stability index no less than 3? no

Entry ACSAWLCPGLRLPGSLAGRRAGPA [AUH] : is its protein stability index no less than 3? no

Entry PSITRKRRYVASVSLHDRIYVIGG [KLHL12] : is its protein stability index no less than 3? no

Entry DVIIEVNGVNVLDEPYEKVVDRIQ [PDZK1] : is its protein stability index no less than 3? yes

Entry PDSHQKRPQHSHSNKKRPSLDGRD [ELOA2] : is its protein stability index no less than 3? yes

Entry SRTQEPSLGKQKVFIIRKSLLDEL [SOAT2] : is its protein stability index no less than 3? no

Entry AEVWVSGTIFIRNVLLFKKQNPGK [RETREG3] : is its protein stability index no less than 3? no

Entry SSPQGVQLDIASQSLDQEILLKVK [BCL2L13] : is its protein stability index no less than 3? yes

Entry WHDTCFVCAICQINLEGKTFYSKK [PDLIM7] : is its protein stability index no less than 3? no

Entry EVKTRHSEKSQREDEEEEEGENYQ [CHGB] : is its protein stability index no less than 3? yes

Entry YLELDRLVWRNSIRSSFISSLSFF [FBXO39] : is its protein stability index no less than 3? no

Entry RQVALGAMEAVRVNPLHVDSTWLL [SLC25A39] : is its protein stability index no less than 3? no

Entry VRAHQDTQRRTSMGGTQQQFVEGV [CTNNB1] : is its protein stability index no less than 3? yes

---

Assay: protein stability index of a GFP-peptide fusion (GPS, HEK-293T) (PSI 1-6); higher = more stable
Conditions: treatment: MLN4924 1 uM, 8 h; c terminus: a fixed tail appended
readout.label: protein stability index

What value of protein stability index has been recorded for this entry: RRRRIIINVGGIKYSLPWTTLDEF [KCNG1] 2.46

What value of protein stability index has been recorded for this entry: IKEIDEHAPGVPRILVGNRLHLAF [RAB40C] 2.06

What value of protein stability index has been recorded for this entry: ETDDPRRYQKYGYIGTHEYPHFSH [OAS1] 3

What value of protein stability index has been recorded for this entry: LEETEPPLEPEDALSDAEFEGEGD [P3H4] 5.55

What value of protein stability index has been recorded for this entry: LNELERLSNLVGKPSENHPLHNSG [MED27] 4.31

What value of protein stability index has been recorded for this entry: VLDSLLLTLLPQLQEAWQQRTPSP [RSAD1] 3.27

What value of protein stability index has been recorded for this entry: EASAEGPRAVFVLLEERRPADSAQ [TFE3] 3.95

What value of protein stability index has been recorded for this entry: SAEEVRFPVSVTQQSPAAVSMETY [C2CD2L] 4.71

What value of protein stability index has been recorded for this entry: KYDPTIEDSYRKQVEVDAQQCMLE [RAP1B] 4.66

What value of protein stability index has been recorded for this entry: HLLSWFSPTIIFDNWIPLLWCANI [DHCR7] 3.08

What value of protein stability index has been recorded for this entry: MVLSRPCHPDDQFTTSILRHWCMK [INTS3] 2.26

What value of protein stability index has been recorded for this entry: KCLQLLGNLGSLEKSVTKDAEGLA [INTS4] 3.08

What value of protein stability index has been recorded for this entry: IIKQLKDVFERDWYSPYAKTLQPT [PLD5] 1.97

---

Assay: protein stability index of a GFP-peptide fusion (GPS, HEK-293T) (PSI 1-6); higher = more stable
Settings: treatment: DMSO; c terminus: a fixed tail appended
Lab note: compare protein stability index against 3. Equal or greater, write yes (1). Smaller, write no (0).

Entry GPAHGPAQEEPWEKKESLGAAQEA [ZNF232] : is its protein stability index no less than 3? yes (1)

Entry MERPMSQADLELDYNPPRVQLSDE [CBY2] : is its protein stability index no less than 3? yes (1)

Entry EAAEPPKTPPSSCDSTNAAIAKQA [KMT5A] : is its protein stability index no less than 3? yes (1)

Entry ADAFHHQVHDDDLLSSSEEECKDR [EMD] : is its protein stability index no less than 3? yes (1)

Entry DDISVDSLDFTKKILHTAWHPAEN [PPP2R2C] : is its protein stability index no less than 3? yes (1)

Entry VCGQNWGIVEAMVVCRQLGLGFAS [LOXL2] : is its protein stability index no less than 3? yes (1)

Entry HKHVHFSSSFTSIASEWFLIANRS [SLC22A15] : is its protein stability index no less than 3? no (0)

Entry LSLKRELSWYRGRRPRTAFTQNQI [HESX1] : is its protein stability index no less than 3? no (0)

Entry AEGDSEGLSQGLVDREKGLSAEPG [CHGA] : is its protein stability index no less than 3? yes (1)

Entry EGQHPAQLRSDVCTPGGTTIYGLH [PYCR3] : is its protein stability index no less than 3? yes (1)

Entry HSAVARISRAQYNALTLTFQRAMH [STX11] : is its protein stability index no less than 3? no (0)

Entry REPALDGGFQMHYEKTPFDQLAFI [EID1] : is its protein stability index no less than 3? no (0)

Entry AAKARDTGILIFAIGVGQVDFNTL [MATN2] : is its protein stability index no less than 3? no (0)

Entry DFFIVGCEVIFCVFIFYYVVEEIL [PKD2L1] : is its protein stability index no less than 3? no (0)

Entry SVAPMNVRRGLAGATTLGDMIYVS [KLHL12] : is its protein stability index no less than 3? no (0)

Entry VTHTLTMRQRISRVEESALRALRE [PPEF2] : is its protein stability index no less than 3? yes (1)

Entry LGQEFDEVTADDRKVKSTITLDGG [FABP4] : is its protein stability index no less than 3? yes (1)

Entry DSHYGTKGLKKVVHETPAASKTVF [BTBD1] : is its protein stability index no less than 3? yes (1)

Entry RMEYVHSKNLIYRDVKPENFLIGR [CSNK1G1] : is its protein stability index no less than 3? no (0)

Entry KLKKGICEALEDSDGRQDSPAGEL [MATN2] : is its protein stability index no less than 3? yes (1)

Entry YDRRVIRGNTYALQTGPLLGRPDS [RSPH3] : is its protein stability index no less than 3? yes (1)

Entry FLRQLPFRGDDGIFDDNFIEERKQ [SNX3] : is its protein stability index no less than 3? yes (1)

Entry SQKVPLRRMCFVDPVRQCAECALV [ZFYVE21] : is its protein stability index no less than 3? no (0)

Entry YLLPDTCFRMQINHAIDIICGFLK [OAS1] : is its protein stability index no less than 3? no (0)

Entry HTRSPYSTFYPPYHSPELTTPPGH [NEUROD6] : is its protein stability index no less than 3? yes (1)

Entry QVHQGIKGMVLDENYNNLANAVIS [CPN1] : is its protein stability index no less than 3? no (0)

Entry VGSDEEDDSGKDKKKKTKKIKEKY [HSP90AB1] : is its protein stability index no less than 3? yes (1)

Entry PVDLNKILEDMRCQYEALVENNRR [KRT36] : is its protein stability index no less than 3? yes (1)

Entry RFHYDRNPGTDAVAQTSLEEFNVL [FATE1] : is its protein stability index no less than 3? yes (1)

Entry DPKKLLTQHFVQENYLEYRQVPGS [MAGEA3] : is its protein stability index no less than 3? yes (1)

Entry DGFFYFFHGTRQYKFDPKTKRILT [MMP1] : is its protein stability index no less than 3? no (0)

Entry NTSLHVFVLDENDNAPAVLHPRPD [PCDHGC5] : is its protein stability index no less than 3? yes (1)

Entry SDKYPIQDTELPKAEECDTITLNC [EDARADD] : is its protein stability index no less than 3? yes (1)

Entry REQEKKPKKEANQAPKSKSGSRPR [LRRC59] : is its protein stability index no less than 3? yes (1)

Entry RLSRRMASQHSYPLNRFSSVPLDP [CBY2] : is its protein stability index no less than 3? yes (1)

Entry TSRDRKDHMVRMHLYPADFRFDKP [ZNF511] : is its protein stability index no less than 3? no (0)

Entry HTGEKPYKCLECGKAFSQNSGLIN [ZNF24] : is its protein stability index no less than 3? no (0)

Entry FYLALYKQMSFLEKRGCPRTALEY [TCF25] : is its protein stability index no less than 3? no (0)

Entry LLKTLYNSIKNEKLEWAIDEDELR [PSD2] : is its protein stability index no less than 3? no (0)

Entry PRRKKLKSTSKYIYQTLFLNGENS [GMCL1] : is its protein stability index no less than 3? no (0)

Entry MRRQEPLPPPPPPSRGGNQLPRPP [WAS] : is its protein stability index no less than 3? yes (1)

Entry QNVHFHRSGSPTVPIKPPCIPNGK [CAMK2D] : is its protein stability index no less than 3? yes (1)

Entry HWPQGPTGPPGPPGPMGPPGPPGP [EMID1] : is its protein stability index no less than 3? yes (1)

Entry PLVKKHCDDSFTPQEKLWQQLRRG [CPOX] : is its protein stability index no less than 3? yes (1)

Entry ELKKAAYDIEVNTRRAQADLAYQL [FLOT1] : is its protein stability index no less than 3? yes (1)

Entry LMFLDICSELNKLCQHFEAVHSGT [SPACA9] : is its protein stability index no less than 3? no (0)

Entry SEVFGPERMPPSGAARSFQEVTEP [PXN] : is its protein stability index no less than 3? yes (1)

Entry RLLGSARPELGAALGIYGAPYAAA [IRX6] : is its protein stability index no less than 3? no (0)

Entry AGVLTIALPVPVIVSNFNYFYHRE [KCNA4] : is its protein stability index no less than 3? no (0)

Entry YSEEECKQYKAVVYSNTIQSIIAI [GNAI1] : is its protein stability index no less than 3? no (0)

Entry QLSIERGKVLQNKQAEICQLEEKL [CCDC89] : is its protein stability index no less than 3? yes (1)

Entry VHSERKLLPLVTLCDGNPRRPSPV [SCNN1D] : is its protein stability index no less than 3? yes (1)
